- assay-protocol: inhibitors of E-selectin induction by TNFa, primary screen, imaging, HUVEC, immunofluorescence, MLSMR starter and 10KST1 sets (AID 487);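 also: signal is fraction of cell area covered by stained E-selectin grains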
- condition-details: HUVEC TNFalpha-induced E-selectin immunofluorescence imaging, at 2 µM; stronger effect = higher value
Listed next: entries and their corresponding inhibition.
readout-type: inhibition (%)

INSERT INTO results (molecule, result_number) VALUES
  ('C=CCn1c(=S)[nH]c2nc3c(cc2c1=O)COC(C)(C)C3', -9.4),
  ('Nc1ccc2[nH]ncc2c1', -64.7),
  ('CCn1cc(C(=O)NCCCN(C)C)c(=O)c2cc(F)c(N3CCN(C)CC3)cc21', -88),
  ('CCN(CC)CCn1c(O)c(N=O)c2ccccc21', -9),
  ('CCCCNc1nc2c(c(=O)n(C)c(=O)n2C)n1Cc1cccc(OC)c1', -133),
  ('CCCc1[nH]n(-c2nc3ccccc3s2)c(=O)c1C=NCCN1CCOCC1', -110),
  ('O=C(O)C1CCCCN1S(=O)(=O)c1cccc2nsnc12 (stereo unspecified)', -8.1),
  ('N#Cc1nc(-c2cccs2)oc1NCCc1ccccc1', -33.7),
  ('CS(=O)(=O)Nc1ccc([N+](=O)[O-])cc1Oc1ccccc1', -24.1),
  ('COc1ccc(CNC(=O)[C@H](C)NC(=O)C2CCN(S(=O)(=O)c3ccc(C)cc3)CC2)cc1', -34.1),
  ('COc1ccc(C2N3CC4(C)CN2CC(C)(C3)C4O)cc1OC (stereo unspecified)', -105);

###

- assay-protocol: DUSP6 inhibitors restoring Erk phosphorylation by chemical complementation, primary imaging in DUSP6-transfected HeLa (AID 609)
- condition-details: HeLa MKP-3 transfected, phospho-Erk imaging KS statistic; measured here: nuclear c-Myc green intensity z-score; at 10 µM; cells stimulated with TPA for 15 min
Rule: z-score of -0.4 or more gives rule met; anything lower gives rule not met.

INSERT INTO assay_data (molecule, group) VALUES
  ('N#Cc1nc(-c2ccccc2Cl)oc1N1CCCCC1', 'rule not met'),
  ('O=C(Nc1nccs1)NC(C(F)(F)F)C(F)(F)F', 'rule met'),
  ('Cc1cc(=O)n2[nH]cnc2n1', 'rule not met'),
  ('CCOC(=O)CSc1nc(N(C)C)nc(N(C)C#N)n1', 'rule not met'),
  ('CN(C)S(=O)(=O)Nc1ccc(NS(=O)(=O)N(C)C)c(S(=O)(=O)c2ccccc2)c1', 'rule met'),
  ('CC(NCCC(c1ccccc1)c1ccccc1)c1ccccc1 (configuration not stated)', 'rule not met'),
  ('Cc1c(Cl)cccc1Nc1ccccc1C(=O)O', 'rule met'),
  ('N#CCCSCc1ccc(OCC(=O)O)cc1', 'rule not met'),
  ('CC1(C)Nc2ccc(O)cc2-c2c1ssc2=S', 'rule not met'),
  ('COc1ccc(C2CC(C(F)(F)F)n3ncc(C(=O)NCC4CCCO4)c3N2)cc1OC (configuration not stated)', 'rule not met'),
  ('O=S(=O)(NCc1cccnc1)c1cccc2nsnc12', 'rule met');

###

- system: Voltage-gated potassium channel subunit beta-2 (Rattus norvegicus)
- assay-protocol: KvBeta enzyme negative modulators, primary screen, biochemical, NADPH fluorescence (AID 622);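 also: slope of raw intensity against log time taken from 70 to 1610 s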
- condition-details: recombinant KvBeta, 4-cyanobenzaldehyde reduction, at 10 µM, stronger effect = higher value
Listed next: entries and their corresponding fluorescence slope.
readout-type: fluorescence slope

INSERT INTO assay_data (molecule, result_number) VALUES
  ('N#Cc1c(N2CCOCC2)nc(N2CCCCC2)c2c1CCN(C1CCCCC1)C2', -0.442),
  ('CC(=O)[C@H]1[C@H](C#N)C[C@H]2[C@@H]3CC=C4C[C@@H](O)CC[C@]4(C)[C@H]3CC[C@@]21C', -0.457),
  ('CCOC(=O)C1=C(CSc2nc(C)cc(C)c2C#N)OC(N)=C(C#N)C1c1cccs1 (stereo not given)', -0.493),
  ('CNC(=O)C1CC(=O)N(Cc2ccccc2)C(=Nc2ccc(OC)cc2)S1 (stereo not given)', -0.496),
  ('COc1ccccc1N1CCN(C2CCN(C(=O)c3cc(OC)c(OC)c(OC)c3)CC2)CC1', -0.32),
  ('CCOC(=O)CSC1=C(C#N)C(c2ccc(C)cc2)C(C(=O)OC)C(=O)N1 (stereo not given)', -0.474),
  ('CCOC(=O)CC1=NC(=O)CS1', -0.455),
  ('Cc1ccnc(N2CCN(c3cc(C)c(C#N)c4nc5ccccc5n34)CC2)c1', -0.408),
  ('COc1cc(-c2nn3c(-c4ccccn4)nnc3s2)cc(OC)c1OC', -0.449),
  ('COc1ccc(CCCNC(=O)CC#N)cc1OC', -0.512),
  ('COc1ccccc1C1/C(=C(/O)c2cnn(-c3ccccc3)c2C)C(=O)C(=O)N1CCN(C)C (stereo not given)', -0.558),
  ('CC(C)c1nc(NCC2CCCO2)c(C#N)c2c1COC(C)(C)C2 (stereo not given)', -0.461),
  ('CN(C)c1oc(-c2cccs2)nc1C#N', -0.052),
  ('CC1CCN(c2oc(-c3ccccc3Cl)nc2C#N)CC1', -0.397),
  ('COc1cccc(-c2nc(N3CCN(Cc4ccccc4)CC3)c3ccccc3n2)c1O', -0.272),
  ('COc1ccc2c(c1)[nH]c1c(=O)n(CC3CCCO3)cnc12 (stereo not given)', -0.423),
  ('CO[C@H]1C[C@@H]2CC[C@@H](C)[C@@](O)(O2)C(=O)C(=O)N2CCCC[C@H]2C(=O)O[C@H]([C@H](C)C[C@@H]2CC[C@@H](O)[C@H](OC)C2)CC(=O)[C@H](C)C=C(C)[C@@H](O)[C@@H](OC)C(=O)[C@H](C)C[C@H](C)C=CC=CC=C1C', -0.462),
  ('COc1cccc(-c2nnc3sc(-c4ccc(Cl)cc4)nn23)c1', -0.385),
  ('CC1(C(=O)O)CCC(C(=O)NC2CCCCCC2)C1(C)C (stereo not given)', -0.513),
  ('O=c1oc2c3c4c(cc2c(C(F)(F)F)c1CCN1CCOCC1)CCCN4CCC3', -0.315);

###

- assay-protocol: inhibitors of Chlamydomonas gravitaxis, primary screen, whole organism, Chlamydomonas reinhardtii, WT vs cilia-less mutant, absorbance, 96-well (AID 463189);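 also: 0% = wild type cc124 cells in DMSO and 100% = ciliumless bld1 mutant cells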
- condition-details: OD600 absorbance, 2 days, at 10 µM, stronger effect = higher value
Listed next: entries and their corresponding inhibition.
readout-type: inhibition (%)

INSERT INTO results (molecule, result_number) VALUES
  ('COc1cc(-c2nn3c(-c4cccnc4)nnc3s2)cc(OC)c1OC', 18.4),
  ('CCCCCc1nc2sc3c(c2c(=O)n1N)CCC3', 68.1),
  ('CCN(CC)CCCN1C(=O)C(=O)/C(=C(/O)c2ccccc2)C1c1ccccn1 (configuration not stated)', 8.25),
  ('COc1ccc(/C=C(/C#N)c2cccnc2)cc1OC', -22),
  ('COc1cccc(OC)c1OCCN1CCN(C(=O)c2ccco2)CC1', -8.27),
  ('CCOC(=O)Cc1nnc(Nc2cccc(O)c2)c2ccccc12', -9.07),
  ('COC(=O)c1ccc(-c2sc3nc(N4CCOCC4)c4c(c3c2N)CCCC4)o1', -6.82),
  ('COc1ccc(C(=O)N2CCC(N3CCN(c4ccccc4)CC3)CC2)cc1OC', 29.9),
  ('CCOC(=O)CC(=O)CSc1nc2c(cc1C#N)CCCCC2', 12.7),
  ('COc1cccc(-c2nc(N3CC(C)CC(C)C3)c3ccccc3n2)c1O (configuration not stated)', 0.389),
  ('Cc1nc(-c2coc3cc(OCC(=O)O)ccc3c2=O)cs1', 29.5),
  ('Cc1c(Cl)cccc1Nc1ccccc1C(=O)O', -6.31),
  ('O=C(O)C1CSC(CCc2ccccc2)N1 (configuration not stated)', 8.25),
  ('CN(C)/C=C1\N=C(c2ccc(Cl)cc2Cl)OC1=O', 40.7),
  ('Oc1ccccc1-c1nc(NCCN2CCOCC2)c2ccccc2n1', 62.5),
  ('OC[C@H]1O[C@@H](n2cnc3c(NC4CCCC4)ncnc32)[C@H](O)[C@@H]1O', 30.3),
  ('COc1ccc(-c2nn3c(-c4ccccn4)nnc3s2)cc1OC', 22),
  ('CN1c2ccccc2-c2nc3ccccc3n2C1c1ccco1 (configuration not stated)', 3.48),
  ('Cn1c(=O)c2c(ncn2CCO)n(C)c1=O', -9.91),
  ('CC1(C)Cc2c(sc3nc4n(c(=N)c23)CCCCC4)CO1', -1.35),
  ('O=C(O)Cc1ccc(-c2ccccc2)cc1', -15),
  ('CC(O)Cn1ccccc1=N (configuration not stated)', 21.9),
  ('COC(=O)c1[nH]c2cc(OC)ccc2c1NC(=O)CCN1CCCC(C)(C)C1', -7.62),
  ('N#CC1=C(N)NC(SCc2ccc(Cl)cc2)=C(C#N)C12CCCCC2', 18.9),
  ('Cn1c2ccccc2c2nn(-c3ccccc3)c(=O)cc21', -13.4),
  ('COc1cccc(C2/C(=C(/O)c3ccc(C)cc3)C(=O)C(=O)N2Cc2ccco2)c1 (configuration not stated)', 15.2),
  ('Cc1ccc(N(CN2C(=O)NC(C)(C)C2=O)CN2C(=O)NC(C)(C)C2=O)cc1', 5.64),
  ('CCN1CCc2c(C#N)c(N3CCOCC3)nc(NCCO)c2C1', -3.77),
  ('Cn1c(OCc2ccc3c(c2)OCO3)nc2c1c(=O)n(Cc1cccc(Cl)c1)c(=O)n2C', 4.63),
  ('CN(CC(O)COc1ccc(OCC(O)CN(C)C2CCCCC2)cc1)C1CCCCC1 (configuration not stated)', 3.04),
  ('Cc1nnc(C)n1/N=C/c1cccn1C', -5.16),
  ('O=C(O)C1CC=CCC1C(=O)N1CCN(c2nc(-c3ccccc3)c3ccccc3n2)CC1 (configuration not stated)', 28.5),
  ('Cc1onc(-c2ccccc2Cl)c1C(=O)N1CCN(c2nc3ccccc3s2)CC1', 13),
  ('Cc1cc(C)n(CC2CC(=O)N(c3ccc(Cl)c(Cl)c3)C2=O)n1 (configuration not stated)', -1.93),
  ('COc1ccc(CNc2oc(COc3ccccc3Cl)nc2C#N)cc1', 31.6),
  ('N/C(CCN1CCOCC1)=N/O', 17.7),
  ('COc1ccccc1C(=O)N1CCN(Cc2ccc3c(c2)OCO3)CC1', 12.2),
  ('COC(=O)CN(c1nc(C)c(Br)c(OC)n1)S(=O)(=O)c1ccc(C)cc1', -5.5),
  ('CCSc1nnc(NC(=O)C(CC)(C(F)(F)F)C(F)(F)F)s1', 21.1),
  ('Cc1cc(=O)oc2cc(OCCSCCN3CCOCC3)ccc12', -5.19),
  ('CCN(CC)CCCN1C(=O)C(=O)/C(=C(/O)c2ccc(C)cc2)C1c1ccccn1 (configuration not stated)', -0.742),
  ('O=C(c1ccccc1)C(CCC(CN1CCOCC1)C(=O)c1ccccc1)CN1CCOCC1 (configuration not stated)', 24.8),
  ('c1ccc(-c2nc(NCC3CCCO3)c3ccccc3n2)nc1 (configuration not stated)', 24.6),
  ('Nc1ccc2c(c1)N1CCN=C1S2', 24),
  ('CN(C)CCCN1C(=O)C(O)=C(C(=O)c2cc3ccccc3o2)C1c1ccccn1 (configuration not stated)', -5.31),
  ('CC(C)(C)n1cnc2cc(NS(=O)(=O)c3ccc(Br)cc3)ccc21', -15),
  ('CSc1nc2sc3c(c2c(=O)n1C1CCCCC1)CCN(C)C3', -15.6);
